- experimental-details: Apparent oral clearance in Sprague-Dawley rat at 2 mg/kg, po
- Format: ADME, organism-based
- Design: dose 2 mg/kg, route oral
- experimental-setup: in vivo
measured-attribute: CL/F (mL/min/kg)
Give your result in mL/min/kg as a bare value.

Ask | Which CL/F is reported for this compound? CN(C)CCC(c1ccc(Cl)c(Cl)c1)N1CCOCC1 (stereo unspecified)
Reply | 417

---

- experimental-details: Ratio of drug level in Sprague-Dawley rat brain to plasma at 0.5 mg/kg iv after 0.25 hrs
- Type: ADME, organism-based
- Parameters: dose 0.5 mg/kg, route intravenous
- experimental-setup: read-out: BPR
measured-attribute: Kp at 0.25 h
Please give the numeric answer without any surrounding text.

Ask | Which Kp at 0.25 h is reported for this compound? CN(C)CCC(c1ccc(Cl)c(Cl)c1)N1CCOCC1 (stereo unspecified)
Reply | 22
